test: growth suppression of PTEN-deleted HCT116, pilot screen, cell-based, HCT116 clonal line, CellTiter-Glo (AID 824); settings: 60 h, at 10 µM, stronger effect = lower value;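 note: 0% = 20 µM Hyamine control and 100% = vehicle cell control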
Records with an inconclusive call do not appear.
Some molecules, each annotated with its measured viability.
Value expressed in %; do not type the unit.

Look over these answered cases.
[
  {
    "molecule": "Cc1cc(NC(=O)COn2nnc3ccc(Cl)cc32)no1",
    "unit.descriptor": "%",
    "viability": 91.2
  },
  {
    "molecule": "Cc1ccc(N(CC(O)CN2CCCC2)S(=O)(=O)c2ccccc2)cc1 (stereo not drawn)",
    "unit.descriptor": "%",
    "viability": 91.2
  }
]

Let us examine a further case.
Task: Which viability is listed for COc1cccc(OCC(=O)N(Cc2nc(-c3ccc(Cl)cc3)no2)C(C)C)c1 ?
Result: 89.7
